# TARGET_OR_TEST_SYSTEM: Dual specificity protein phosphatase 10 (Homo sapiens)
# Sequence (Q9Y6W6 whole entry): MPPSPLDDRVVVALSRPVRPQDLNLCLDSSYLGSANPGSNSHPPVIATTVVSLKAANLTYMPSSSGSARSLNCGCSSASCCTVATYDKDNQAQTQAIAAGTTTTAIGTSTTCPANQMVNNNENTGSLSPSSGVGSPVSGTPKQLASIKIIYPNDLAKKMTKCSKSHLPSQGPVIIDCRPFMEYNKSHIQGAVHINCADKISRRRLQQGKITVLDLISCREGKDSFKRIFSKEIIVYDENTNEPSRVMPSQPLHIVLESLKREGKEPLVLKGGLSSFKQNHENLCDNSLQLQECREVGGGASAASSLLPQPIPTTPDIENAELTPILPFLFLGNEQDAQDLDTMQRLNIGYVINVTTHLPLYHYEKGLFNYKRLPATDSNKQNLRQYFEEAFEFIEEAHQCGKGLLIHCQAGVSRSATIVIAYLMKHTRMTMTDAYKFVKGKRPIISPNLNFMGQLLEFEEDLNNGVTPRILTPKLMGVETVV
# EXPERIMENT_DESCRIPTION: Inhibition of human MKP5 catalytic domain (320 to 467 residues) expressed in Escherichia coli BL21 (DE3) cells by MST assay
ENDPOINT: IC50
Please format your answer as a value with the unit trailing.

Look at this compound and give its reported IC50. CSc1scc2c1-c1nc(SCC(=O)C(C)(C)C)ncc1CC2 3.8 µM

* * *

# TARGET_OR_TEST_SYSTEM: Dual specificity protein phosphatase 10 (Homo sapiens, UniProt Q9Y6W6)
# EXPERIMENT_DESCRIPTION: Inhibition of MKP5 catalytic domain (unknown origin) expressed in Escherichia coli BL21 (DE3) cells assessed as p38alpha MAPK phosphopeptide dephosphorylation using phosphopeptide as substrate incubated for 15 mins followed by substrate addition by malachite green dye based analysis
Mark Yes only for IC50 values smaller than 6 µM; exact matches and larger values are No.

Some solved cases for reference:
LINE_NOTATION	GROUP_LABEL
CC(C)(C)C(=O)CSc1ncc2c(n1)-c1ccsc1CC2	No
CC(C)(C)C(=O)CSc1ncc2cnc3ccccc3c2n1	No
CCN(C)C(=O)CSc1ncc2c(n1)-c1c(csc1SC)CC2	No
CC(=O)N1Cc2cnc(SCC(=O)C(C)(C)C)nc2-c2ccccc21	No
CC(C)(C)C(=O)CSc1ncc2c(n1)-c1cc(Cl)ccc1CC2	Yes
CCc1csc2c1-c1nc(SCC(=O)C(C)(C)C)ncc1CC2	Yes
CC(C)(C)C(=O)CSc1ncc2c(n1)-c1ccccc1CC2	No
CC(C)(C)C(=O)CSc1ncc2c(n1)-c1cccnc1CC2	No
CC(C)(C)C(=O)CSc1nccc(-c2cccnc2)n1	No
CSc1scc2c1-c1nc(SCC(=O)C(C)(C)C)ncc1CC2	Yes

Regarding CCCc1csc2c1-c1nc(SCC(=O)C(C)(C)C)ncc1CC2 , kindly confirm whether its IC50 is beneath 6 µM. No

Thanks! And CC(C)(C)C(=O)CSc1nccc(-c2ccccc2)n1 ? No

Thanks! And Cc1ccc2c(c1)-c1nc(SCC(=O)C(C)(C)C)ncc1CC2 ? No
